Biological target: rat Y5 receptor (Rattus norvegicus, UniProt Q63634)
Construct: expressed in transfected cells; host or cells: C6 cells (membrane preparation)
Sequence (Q63634 whole entry): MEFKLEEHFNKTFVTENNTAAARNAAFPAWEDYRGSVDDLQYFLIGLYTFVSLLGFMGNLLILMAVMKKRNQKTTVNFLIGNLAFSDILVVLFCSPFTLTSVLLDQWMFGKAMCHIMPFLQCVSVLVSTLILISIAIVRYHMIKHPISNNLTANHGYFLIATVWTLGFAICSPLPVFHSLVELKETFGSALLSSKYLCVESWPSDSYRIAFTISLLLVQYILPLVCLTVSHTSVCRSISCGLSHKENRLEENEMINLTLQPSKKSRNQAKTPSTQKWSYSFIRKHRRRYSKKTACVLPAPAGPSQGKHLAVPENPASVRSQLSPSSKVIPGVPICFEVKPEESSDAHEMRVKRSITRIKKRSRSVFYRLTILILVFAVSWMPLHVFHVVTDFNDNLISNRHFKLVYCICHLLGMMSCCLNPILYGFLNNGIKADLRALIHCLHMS
Experiment: Neuropeptide Y5 receptor binding ([125I]-PYY displacement, membranes of transfected C6 cells)
Conditions: compound at 10^−6 M; radioligand [125I]-PYY 100 pM; C6 cells transfected with rat Y5 receptor
Readout Label: inhibition at 1 µM (%)

CCn1c2ccccc2c2cc(NC(=O)CN3CCC(Nc4cccc(OC)c4)CC3)ccc21 = 96.9
CCn1c2ccccc2c2cc(NC(=O)CN3CCC(Nc4ccc(OC)cc4)CC3)ccc21 = 91.1

a = CCn1c2ccccc2c2cc(NC(=O)CN3CCC(Nc4ccc(O)cc4)CC3)ccc21
b = O=C(CN1CCC(Nc2ccccc2O)CC1)Nc1ccc(C2CCCCC2)cc1
Query :: Param metric = inhibition at 1 µM; output whichever of a , b has the minimum value. // return label of chosen record
Result :: b

====

Target: rat Y5 receptor (Rattus norvegicus, UniProt Q63634)
Construct: expressed in transfected cells; host or cells: C6 cells (membrane preparation)
Test: Neuropeptide Y5 receptor binding ([125I]-PYY displacement, membranes of transfected C6 cells)
Details: compound at 10^−6 M; radioligand [125I]-PYY 100 pM; C6 cells transfected with rat Y5 receptor
Procedure: Neuropeptide Y5 Receptor Binding Studies: The methods used for membrane preparation and binding are similar to those described by Y. Hu, B. T. Bloomquist et al. in Y. Hu, B. T. Bloomquist et al., The Journal of Biological Chemistry, 1996, 271, 26315-26319 with modifications. […] The quantity of radioactivity present was determined in a Wallac Winspectral 1414 counter. Non specific binding was determined in the presence of 1 μM de pNPY. […]
Readout Label: inhibition at 1 µM (%)

O=C(CN1CCC(Nc2ccccc2O)CC1)Nc1ccc2ncccc2c1 [Example 5] = 22.7
O=C(CN1CCC(Nc2ccccc2)CC1)Nc1ccc2c(c1)CCCC2=O [Example 35] = 67.1
O=C(CN1CCC(N(CC(=O)Nc2ccc3c(c2)-c2ccccc2C3=O)c2ccc(O)cc2)CC1)Nc1ccc2c(c1)-c1ccccc1C2=O [Example 38] = 45.1
COc1cccc(NC2CCN(CC(=O)Nc3ccc4c(c3)-c3ccccc3C4=O)CC2)c1 [Example 24] = 97.5
O=C(CN1CCC(Nc2ccccc2O)CC1)Nc1cnc2ccccc2c1 [Example 1] = 5.6

1 = O=C(CN1CCC(Nc2ccccc2)CC1)Nc1ccc2c(c1)-c1ccccc1C2=O [Example 33]
2 = CCN(CCO)c1ccc(NC(=O)CN2CCC(Nc3cccc(OC)c3)CC2)cc1 [Example 25]
Query :: Between 1 and 2 , whose recorded inhibition at 1 µM is greater? # reply format: chosen label
Result :: 1

A = CCN(CCO)c1ccc(NC(=O)CN2CCC(Nc3ccc(OC)cc3)CC2)cc1 [Example 29]
B = COc1ccccc1NC1CCN(CC(=O)Nc2cnc3ccccc3c2)CC1 [Example 21]
C = CCn1c2ccccc2c2cc(NC(=O)CN3CCC(Nc4ccccc4OC)CC3)ccc21 [Example 17]
Query :: Thanks in advance: please rank these 3 entries by inhibition at 1 µM, highest to lowest. // rank by listing labels in the order requested
Result :: C, A, B

P = COc1ccccc1NC1CCN(CC(=O)Nc2ccc3c(c2)-c2ccccc2C3=O)CC1 [Example 18]
Q = O=C(CN1CCC(Nc2cccc(O)c2)CC1)Nc1ccc2ncccc2c1 [Example 13]
Query :: Kindly identify the item with the lower inhibition at 1 µM figure among these two: P and Q Reply briefly: the label of your chosen item.
Result :: Q
